- TARGET: Adenosine receptor A2a (Rattus norvegicus, UniProt P30543)
- Sequence (P30543 whole entry): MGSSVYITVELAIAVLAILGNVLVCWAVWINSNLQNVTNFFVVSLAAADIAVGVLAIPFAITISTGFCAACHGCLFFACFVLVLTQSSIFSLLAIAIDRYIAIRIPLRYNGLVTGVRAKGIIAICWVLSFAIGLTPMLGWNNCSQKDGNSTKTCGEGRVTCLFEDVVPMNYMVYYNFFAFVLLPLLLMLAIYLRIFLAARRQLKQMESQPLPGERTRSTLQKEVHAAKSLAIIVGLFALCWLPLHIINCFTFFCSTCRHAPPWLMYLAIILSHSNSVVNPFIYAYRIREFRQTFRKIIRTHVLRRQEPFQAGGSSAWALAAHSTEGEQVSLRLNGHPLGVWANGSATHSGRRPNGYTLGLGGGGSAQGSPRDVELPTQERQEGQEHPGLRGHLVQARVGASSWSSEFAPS
- PROTOCOL SUMMARY: Inhibition of [3H]MSX-2 binding to adenosine A2a receptor
Would you kindly list Ki for each of these molecules?
One number for each entry, in µM.

Below are worked cases with known answers.
{"columns": ["INPUT SMILES", "Ki (µM)"],
 "data": [
  ["CCCn1c(=O)c2nc(C3=CC(C)(C)N([O])C3(C)C)[nH]c2n(CCC)c1=O", 3.8],
  ["CCCn1c(=O)c2nc(C3CC(C)(C)N([O])C(C)(C)C3)[nH]c2n(CCC)c1=O", 6.75],
  ["CCCCn1c(=O)[nH]c2[nH]c(-c3ccc(OCC(=O)Nc4ccc(CC(=O)O)cc4)cc3)nc2c1=O", 0.479]
]}

Qu. For Adenosine receptor A2a (Rattus norvegicus, UniProt P30543), give the measured Ki of the entry CCCn1c(=O)c2nc(C3CCCC3)[nH]c2n(CC2=CC(C)(C)N([O])C2(C)C)c1=O
Ans. 8.78

---

- TARGET: Adenosine receptor A2b (Homo sapiens, UniProt P29275)
- Sequence (P29275 whole entry): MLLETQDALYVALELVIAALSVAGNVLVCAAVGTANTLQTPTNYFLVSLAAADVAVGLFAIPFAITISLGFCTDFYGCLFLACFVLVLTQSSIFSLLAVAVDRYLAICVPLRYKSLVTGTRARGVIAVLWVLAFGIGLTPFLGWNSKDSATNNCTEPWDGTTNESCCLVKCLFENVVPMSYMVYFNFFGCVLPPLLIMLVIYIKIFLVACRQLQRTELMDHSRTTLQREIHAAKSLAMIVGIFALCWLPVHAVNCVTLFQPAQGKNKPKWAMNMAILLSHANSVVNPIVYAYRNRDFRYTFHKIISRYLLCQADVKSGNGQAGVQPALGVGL
- PROTOCOL SUMMARY: Inhibition of [3H]ZM-241380 binding to adenosine A2b receptor
MEASURED PARAMETER: pKi
One number for each entry, as −log10 of the molar value.

Qu. // fetch pKi given entry CCCCn1c(=O)[nH]c2[nH]c(-c3ccc(OCC(=O)Nc4ccc(CC(=O)O)cc4)cc3)nc2c1=O
Ans. 8.28
